Assay overview: Pharmacokinetics after administration of rac-ornidazole in a formulation
Assay type: in vivo, human
Recorded conditions: human, in vivo; after administration of rac-Ornidazole in a formulation
Measured quantity: Tmax

Data request: Sample Cc1ncc([N+](=O)[O-])n1CC(O)CCl (racemic) [(rac)-ornidazole, reference compound] — what was its Tmax?
Data returned: 2 to 4 h

---

Assay overview: Pharmacokinetics after administration of rac-ornidazole in a formulation
Assay type: in vivo, human
Recorded conditions: human, in vivo; after oral administration; read-out: terminal elimination half-life
Measured quantity: half-life

Data request: Find the recorded half-life belonging to Cc1ncc([N+](=O)[O-])n1CC(O)CCl (racemic) [(rac)-ornidazole, reference compound] and report it.
Data returned: 14 to 18 h
